Where do these numbers come from? They come from patent US7323469B2.

Could you please report measured melting point for the items listed next?

- Clc1cccc(CNc2ncnc3[nH]c(-c4ccc(CN5CCCC5)cc4)cc23)c1 [Example 88]: 222 to 225 °C
- CCN1CCN(Cc2ccc(-c3cc4c(NCc5cccc(OC)c5)ncnc4[nH]3)cc2)CC1 [Example 107c]: 231 to 233 °C
- CCN(CC)CCC(=O)NCc1ccc(-c2cc3c(N[C@H](C)c4ccccc4)ncnc3[nH]2)cc1 [Example 55]: 175 to 177 °C

From here, focus on the item given below.
Notebook: Fc1ccc(Nc2ncnc3[nH]c(-c4ccc(CN5CCOCC5)cc4)cc23)cc1Cl [Example 7] , melting point read as 298 to 300 °C
